B1: ZNF263 (parent)
chain: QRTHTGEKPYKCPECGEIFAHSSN

# Variants of: B1
# Procedure details: protein stability index of a GFP-peptide fusion (GPS, HEK-293T) (PSI 1-6); higher = more stable;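 note: lentivirally expressed fusions sorted by FACS into six bins by GFP to DsRed ratio, PSI derived from sequencing read proportions per bin multiplied by bin number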
# Condition: c terminus: a fixed tail appended
Reported protein stability index values are given for each entry in this list.
Answer as a number with no unit attached.

Worked examples, 3 variants total:
Changes | protein stability index
I18P | 3.43
T5R | 2.27
T3N | 3.79

Which protein stability index value is on record for T5I ?
3.03

Any idea what protein stability index was measured for H21G ?
3.22

For E17G , what is its reported protein stability index?
2.53

If you can, please state the reported protein stability index value of I18Q .
3.91

Record request: protein stability index value, item T5F
2.92

Return reported protein stability index; argument: C12H
4.13

Given the variant N24Q , what is its reported protein stability index?
3.65

Entry Q1K : reported protein stability index = ?
2.72

Given T3K , state its recorded protein stability index.
3.28
